System: endotoxemic shock in D-GalN-sensitized mice
Assay: in vivo
Design: unit not given here
Conditions: 10 mg/kg i.p. one hour before LPS (0.1 μg/mouse) + D-GalN (60 mg/kg); LPS + D-GalN control 100; 48 hours
property-name: lethality, Dose 10 mg/kg

Here is how some compounds turned out for lethality, Dose 10 mg/kg.
compound	lethality, Dose 10 mg/kg
CN(C)c1nc(=[N+](C)c2ccccc2)ss1.F[B-](F)(F)F	80
CN(C)c1nc(=[N+](C)Cc2ccc(Cl)cc2)ss1	0
CN(C)c1nc(=[N+](C)Cc2ccc(Cl)cc2Cl)ss1	0
CC1C[N+](=c2nc(N(C)C)ss2)CC(C)O1.[I-] (centres unmarked)	100
CN(C)c1nc(=[N+](C)Cc2ccc(Cl)c(Cl)c2)ss1	20

Q) What lethality, Dose 10 mg/kg value was documented for this compound, `CC(C)[N+](=c1nc(N(C)C)ss1)C(C)C` ?
A) 20

Q) Which lethality, Dose 10 mg/kg value belongs to `CN(C)c1nc(=[N+]2CCOCC2)ss1` ?
A) 40

Q) Which value of lethality, Dose 10 mg/kg has been reported for `CN1CC[N+](=c2nc(N(C)C)ss2)CC1` in the records?
A) 40

Data origin, for the record: patent US5502066A
